Target: Calmodulin-1 (Homo sapiens)
pIC50: −log10 of the molar value.
test.readout: pIC50

INSERT INTO results (smiles, test_readout, endpoint_result) VALUES
  ('COc1ccc(CCc2cc(OC)cc(OC)c2)cc1', 'pIC50', 3.83),
  ('Oc1cccc(CCCc2ccc3c(c2)OCO3)c1', 'pIC50', 4.64),
  ('COc1ccc(CCCc2ccc(O)cc2)cc1', 'pIC50', 4.20),
  ('CCOc1ccc(CCc2cc(OC)cc(OC)c2)cc1OC', 'pIC50', 4.73),
  ('Oc1cccc(CCc2ccc3c(c2)OCO3)c1', 'pIC50', 4.12),
  ('COc1cc(O)cc(C(=O)/C=C/c2ccc(OC)c(O)c2)c1', 'pIC50', 4.42),
  ('CCOc1ccc(CCc2cc(O)cc(OC)c2)cc1OC', 'pIC50', 4.26),
  ('COc1cc(O)cc(CCCc2ccc(O)c(OC)c2)c1', 'pIC50', 4.49);
